binders and their reported fold inhibition APC/fXa
- target_system: T1, activated Protein C (APC) (human, UniProt P04070 43-197; P04070 212-461)
- T1 construct: also called human plasma APC
- T1 sequence (P04070 43-197, chain 1 of 2): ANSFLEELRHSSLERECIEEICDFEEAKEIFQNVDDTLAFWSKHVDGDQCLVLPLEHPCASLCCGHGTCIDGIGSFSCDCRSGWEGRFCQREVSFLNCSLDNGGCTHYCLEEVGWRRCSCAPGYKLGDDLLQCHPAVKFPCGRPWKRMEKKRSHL
- T1 sequence (P04070 212-461, chain 2 of 2): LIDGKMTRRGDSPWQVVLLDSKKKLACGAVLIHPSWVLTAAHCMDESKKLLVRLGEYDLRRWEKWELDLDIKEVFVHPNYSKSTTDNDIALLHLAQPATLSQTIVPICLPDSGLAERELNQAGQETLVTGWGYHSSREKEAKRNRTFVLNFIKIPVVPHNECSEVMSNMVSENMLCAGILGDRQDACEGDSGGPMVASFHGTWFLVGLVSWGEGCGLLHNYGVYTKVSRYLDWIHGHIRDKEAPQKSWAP
- experimental_details: ratio of rate constants, APC over fXa
The reply should be a number in fold, with the unit left off.

A22 WT PCI (other, Serpin; E. coli, SUMO tag removed; also called A22 wild-type (WT) PCI) APSSRRDFTFDLYRALASAAPSQNIFFSPVSISMSLAMLSLGAGSSTKMQILEGLGLNLQKSSEKELHRGFQQLLQELNQPRDGFQLSLGNALFTDLVVDLQDTFVSAMKTLYLADTFPTNFRDSAGAMKQINDYVAKQTKGKIVDLLKNLDSNAVVIMVNYIFFKAKWETSFNHKGTQEQDFYVTSETVVRVPMMSREDQYHYLLDRNLSCRVVGVPYQGNATALFILPSEGKMQQVENGLSEKTLRKWLKMFKKRQLELYLPKFSIEGSYQLEKVLPSLGISNVFTSHADLSGISNHSNIQVSEMVHKAVVEVDESGTRAAAATGTIFTFRSARLNSQRLVFNRPFLMFIVDNNILFLGKVNRP: 0.07
FL α1AT Pitts C232S (other, Serpin; E. coli, SUMO tag removed; also called α1-antitrypsin Pittsburgh) SDPQGDAAQKTDTSHHDQDHPTFNKITPNLAEFAFSLYRQLAHQSNSTNIFFSPVSIATAFAMLSLGTKADTHDEILEGLNFNLTEIPEAQIHEGFQELLRTLNQPDSQLQLTTGNGLFLSEGLKLVDKFLEDVKKLYHSEAFTVNFGDTEEAKKQINDYVEKGTQGKIVDLVKELDRDTVFALVNYIFFKGKWERPFEVKDTEEEDFHVDQVTTVKVPMMKRLGMFNIQHSKKLSSWVLLMKYLGNATAIFFLPDEGKLQHLENELTHDIITKFLENEDRRSASLHLPKLSITGTYDLKSVLGQLGITKVFSNGADLSGVTEEAPLKLSKAVHKAVLTIDEKGTEAAGAMFLEAIPRSIPPEVKFNKPFVFLMIEQNTKSPLFMGKVVNPTQK: 2.6

Consider the binder shown here: A22 P1′K PCI (other, As A22 WT PCI) APSSRRDFTFDLYRALASAAPSQNIFFSPVSISMSLAMLSLGAGSSTKMQILEGLGLNLQKSSEKELHRGFQQLLQELNQPRDGFQLSLGNALFTDLVVDLQDTFVSAMKTLYLADTFPTNFRDSAGAMKQINDYVAKQTKGKIVDLLKNLDSNAVVIMVNYIFFKAKWETSFNHKGTQEQDFYVTSETVVRVPMMSREDQYHYLLDRNLSCRVVGVPYQGNATALFILPSEGKMQQVENGLSEKTLRKWLKMFKKRQLELYLPKFSIEGSYQLEKVLPSLGISNVFTSHADLSGISNHSNIQVSEMVHKAVVEVDESGTRAAAATGTIFTFRKARLNSQRLVFNRPFLMFIVDNNILFLGKVNRP What is its recorded fold inhibition APC/fXa?
1.7

For the binder shown here, FL α1AT Pitts C232S P1′K (other, E. coli, SUMO tag removed; also called P1′K α1AT Pitts; P1′.F9) SDPQGDAAQKTDTSHHDQDHPTFNKITPNLAEFAFSLYRQLAHQSNSTNIFFSPVSIATAFAMLSLGTKADTHDEILEGLNFNLTEIPEAQIHEGFQELLRTLNQPDSQLQLTTGNGLFLSEGLKLVDKFLEDVKKLYHSEAFTVNFGDTEEAKKQINDYVEKGTQGKIVDLVKELDRDTVFALVNYIFFKGKWERPFEVKDTEEEDFHVDQVTTVKVPMMKRLGMFNIQHSKKLSSWVLLMKYLGNATAIFFLPDEGKLQHLENELTHDIITKFLENEDRRSASLHLPKLSITGTYDLKSVLGQLGITKVFSNGADLSGVTEEAPLKLSKAVHKAVLTIDEKGTEAAGAMFLEAIPRKIPPEVKFNKPFVFLMIEQNTKSPLFMGKVVNPTQK , give the reported fold inhibition APC/fXa.
19.6

Given FL α1AT Pitts C232S P2KP1′K (other, E. coli, SUMO tag removed; also called P2KP1′K α1AT; P2KP1′K mutant of α1AT Pitts) SDPQGDAAQKTDTSHHDQDHPTFNKITPNLAEFAFSLYRQLAHQSNSTNIFFSPVSIATAFAMLSLGTKADTHDEILEGLNFNLTEIPEAQIHEGFQELLRTLNQPDSQLQLTTGNGLFLSEGLKLVDKFLEDVKKLYHSEAFTVNFGDTEEAKKQINDYVEKGTQGKIVDLVKELDRDTVFALVNYIFFKGKWERPFEVKDTEEEDFHVDQVTTVKVPMMKRLGMFNIQHSKKLSSWVLLMKYLGNATAIFFLPDEGKLQHLENELTHDIITKFLENEDRRSASLHLPKLSITGTYDLKSVLGQLGITKVFSNGADLSGVTEEAPLKLSKAVHKAVLTIDEKGTEAAGAMFLEAIKRKIPPEVKFNKPFVFLMIEQNTKSPLFMGKVVNPTQK , state its recorded fold inhibition APC/fXa.
126
